Tested on: Klebsiella pneumoniae Kp BM1
Type: cell-based
Details: Kp BM1
Where a SMILES comes first, the peptide text is derived from it. Bridges are numbered along the chain shown (N, C = ends). [ ]: non-standard residue; d: D form. The star is where a group is joined. X9 = O=C(c1ccnc(C(F)(F)F)c1)*; X27 = O=C(c1sc2ccccc2c1Cl)*; Dab = NCC[C@H](N)C(=O)O; X10 = O=C(c1cc(Br)cs1)*; X60 = O=C(c1cnc(Br)s1)*; Abu = CC[C@H](N)C(=O)O; Dap = NC[C@H](N)C(=O)O
Consider the following compounds; for each one, report its Minimum inhibitory concentration.
One number for each entry, in µg/mL.

1. CC(C)C[C@H]1NC(=O)[C@H](CCN)NC(=O)[C@@H](NC(=O)[C@H](CN)NC(=O)[C@@H](NC(=O)[C@H](CCN)NC(=O)c2ccnc(C(F)(F)F)c2)[C@@H](C)O)CCNC(=O)[C@H]([C@@H](C)O)NC(=O)[C@H](CCN)NC(=O)[C@H](CCN)NC(=O)[C@H]([C@@H](C)O)NC1=O [Compound 32] (X9-[Dab]T[Dap][Dab][Dab][dL]T[Dab][Dab]T; lactam 4-C; N-terminus assumed) :: 1
2. CC[C@@H]1NC(=O)[C@@H](CC(C)C)NC(=O)[C@H](CCN)NC(=O)[C@@H](NC(=O)[C@H](CN)NC(=O)[C@@H](NC(=O)[C@H](CCN)NC(=O)c2cc(Br)cs2)[C@@H](C)O)CCNC(=O)[C@H]([C@@H](C)O)NC(=O)[C@H](CCN)NC(=O)[C@H](CCN)NC1=O [Compound 88] (X10-[Dab]T[Dap][Dab][Dab][dL][Abu][Dab][Dab]T; lactam 4-C) :: 0.25
3. CC(C)C[C@H]1NC(=O)[C@H](CCN)NC(=O)[C@@H](NC(=O)[C@H](CN)NC(=O)[C@@H](NC(=O)[C@H](CCN)NC(=O)c2sc3ccccc3c2Cl)[C@@H](C)O)CCNC(=O)[C@H]([C@@H](C)O)NC(=O)[C@H](CCN)NC(=O)[C@H](CCN)NC(=O)[C@H](C)NC1=O [Compound 69] (X27-[Dab]T[Dap][Dab][Dab][dL]A[Dab][Dab]T; lactam 4-C) :: 0.25

Here is the next item to consider.
*Q* Let me know recorded Minimum inhibitory concentration for CC[C@@H]1NC(=O)[C@@H](CC(C)C)NC(=O)[C@H](CCN)NC(=O)[C@@H](NC(=O)[C@H](CN)NC(=O)[C@@H](NC(=O)[C@H](CCN)NC(=O)c2cnc(Br)s2)[C@@H](C)O)CCNC(=O)[C@H]([C@@H](C)O)NC(=O)[C@H](CCN)NC(=O)[C@H](CCN)NC1=O [Compound 91] (X60-[Dab]T[Dap][Dab][Dab][dL][Abu][Dab][Dab]T; lactam 4-C) , thanks.
*A* 0.5

====

Assign Minimum inhibitory concentration to each entry below.
Tested on: Pseudomonas aeruginosa FADDI-PA01
Type: cell-based
Settings: FADDI-
Where a SMILES comes first, the peptide text is derived from it. Bridges are numbered along the chain shown (N, C = ends). [ ]: non-standard residue; d: D form. The star is where a group is joined. X50 = O=C(c1sc(Br)cc1Br)*; X54 = O=C(c1cccc(Cl)n1)*; Dab = NCC[C@H](N)C(=O)O; Abu = CC[C@H](N)C(=O)O; Dap = NC[C@H](N)C(=O)O
One number for each entry, in µg/mL.

Look up Minimum inhibitory concentration for the entries below, preserving their order.
1. CC(C)C[C@H]1NC(=O)[C@H](CCN)NC(=O)[C@@H](NC(=O)[C@H](CN)NC(=O)[C@@H](NC(=O)[C@H](CCN)NC(=O)c2sc(Br)cc2Br)[C@@H](C)O)CCNC(=O)[C@H]([C@@H](C)O)NC(=O)[C@H](CCN)NC(=O)[C@H](CCN)NC(=O)[C@H](C)NC1=O [Compound 99] (X50-[Dab]T[Dap][Dab][Dab][dL]A[Dab][Dab]T; lactam 4-C)
2. CC[C@@H]1NC(=O)[C@@H](CC(C)C)NC(=O)[C@H](CCN)NC(=O)[C@@H](NC(=O)[C@H](CN)NC(=O)[C@@H](NC(=O)[C@H](CCN)NC(=O)c2cccc(Cl)n2)[C@@H](C)O)CCNC(=O)[C@H]([C@@H](C)O)NC(=O)[C@H](CCN)NC(=O)[C@H](CCN)NC1=O [Compound 43] (X54-[Dab]T[Dap][Dab][Dab][dL][Abu][Dab][Dab]T; lactam 4-C)

*A*
1. 0.25
2. 0.25

====

Please respond with reported Minimum inhibitory concentration for every item in the list.
System: Acinetobacter baumannii FADDI-AB030
Assay: microbe, parasite or virus in culture
Type: cell-based
Conditions: FADDI-AB030
Where a SMILES comes first, the peptide text is derived from it. Bridges are numbered along the chain shown (N, C = ends). [ ]: non-standard residue; d: D form. The star is where a group is joined. X23 = O=C(c1cc2ccccc2[nH]1)*; X56 = Cn1cc(C(=O)*)c2ccccc21; X1 = O=C(c1ncc(Cl)cc1Cl)*; Dab = NCC[C@H](N)C(=O)O; Abu = CC[C@H](N)C(=O)O; Dap = NC[C@H](N)C(=O)O
One number for each entry, in µg/mL.

Worked cases, Minimum inhibitory concentration given:
1) CC[C@@H]1NC(=O)[C@@H](CC(C)C)NC(=O)[C@H](CCN)NC(=O)[C@@H](NC(=O)[C@H](CN)NC(=O)[C@@H](NC(=O)[C@H](CCN)NC(=O)c2cn(C)c3ccccc23)[C@@H](C)O)CCNC(=O)[C@H]([C@@H](C)O)NC(=O)[C@H](CCN)NC(=O)[C@H](CCN)NC1=O [Compound 63] (X56-[Dab]T[Dap][Dab][Dab][dL][Abu][Dab][Dab]T; lactam 4-C) :: 0.5
2) CC(C)C[C@H]1NC(=O)[C@H](CCN)NC(=O)[C@@H](NC(=O)[C@H](CN)NC(=O)[C@@H](NC(=O)[C@H](CCN)NC(=O)c2cc3ccccc3[nH]2)[C@@H](C)O)CCNC(=O)[C@H]([C@@H](C)O)NC(=O)[C@H](CCN)NC(=O)[C@H](CCN)NC(=O)[C@H](C)NC1=O [Compound 67] (X23-[Dab]T[Dap][Dab][Dab][dL]A[Dab][Dab]T; lactam 4-C) :: 1

Below: the item to evaluate.
*Q* Give Minimum inhibitory concentration; test system Acinetobacter baumannii FADDI-AB030; molecule C[C@@H](O)[C@@H]1NC(=O)[C@H](CCN)NC(=O)[C@H](CCN)NC(=O)[C@H]([C@@H](C)O)NC(=O)[C@@H](Cc2ccccc2)NC(=O)[C@H](CCN)NC(=O)[C@@H](NC(=O)[C@H](CN)NC(=O)[C@@H](NC(=O)[C@H](CCN)NC(=O)c2ncc(Cl)cc2Cl)[C@@H](C)O)CCNC1=O [Compound 11] (X1-[Dab]T[Dap][Dab][Dab][dF]T[Dab][Dab]T; lactam 4-C)
*A* 2

====

Tested on: Enterobacter cloacae FADDI-EC003
Assay type: cell-based
Conditions: E. cloacae FADDI-EC003; CAMHB broth microdilution
Where a SMILES comes first, the peptide text is derived from it. Bridges are numbered along the chain shown (N, C = ends). [ ]: non-standard residue; d: D form. The star is where a group is joined. Indazole3carbonyl = O=C(c1n[nH]c2ccccc12)*; X66 = O=C(c1c[nH]c(-c2ccccc2)n1)*; X14 = O=C(c1ccc(C(F)(F)F)cn1)*; X52 = O=C(c1nc2ccccc2s1)*; X48 = O=C(c1ccc(Cl)nc1)*; Dab = NCC[C@H](N)C(=O)O; Abu = CC[C@H](N)C(=O)O; Dap = NC[C@H](N)C(=O)O
measurement.type: Minimum inhibitory concentration (µg/mL)
One number for each entry, in µg/mL.

Need Minimum inhibitory concentration for each of these compounds.
1. CC[C@@H]1NC(=O)[C@@H](CC(C)C)NC(=O)[C@H](CCN)NC(=O)[C@@H](NC(=O)[C@H](CN)NC(=O)[C@@H](NC(=O)[C@H](CCN)NC(=O)c2c[nH]c(-c3ccccc3)n2)[C@@H](C)O)CCNC(=O)[C@H]([C@@H](C)O)NC(=O)[C@H](CCN)NC(=O)[C@H](CCN)NC1=O [Compound 82] (X66-[Dab]T[Dap][Dab][Dab][dL][Abu][Dab][Dab]T; lactam 4-C)
2. CC[C@@H]1NC(=O)[C@@H](CC(C)C)NC(=O)[C@H](CCN)NC(=O)[C@@H](NC(=O)[C@H](CN)NC(=O)[C@@H](NC(=O)[C@H](CCN)NC(=O)c2ccc(C(F)(F)F)cn2)[C@@H](C)O)CCNC(=O)[C@H]([C@@H](C)O)NC(=O)[C@H](CCN)NC(=O)[C@H](CCN)NC1=O [Compound 38] (X14-[Dab]T[Dap][Dab][Dab][dL][Abu][Dab][Dab]T; lactam 4-C)
3. CC[C@@H]1NC(=O)[C@@H](CC(C)C)NC(=O)[C@H](CCN)NC(=O)[C@@H](NC(=O)[C@H](CN)NC(=O)[C@@H](NC(=O)[C@H](CCN)NC(=O)c2nc3ccccc3s2)[C@@H](C)O)CCNC(=O)[C@H]([C@@H](C)O)NC(=O)[C@H](CCN)NC(=O)[C@H](CCN)NC1=O [Compound 70] (X52-[Dab]T[Dap][Dab][Dab][dL][Abu][Dab][Dab]T; lactam 4-C)
4. CC[C@@H]1NC(=O)[C@@H](CC(C)C)NC(=O)[C@H](CCN)NC(=O)[C@@H](NC(=O)[C@H](CN)NC(=O)[C@@H](NC(=O)[C@H](CCN)NC(=O)c2ccc(Cl)nc2)[C@@H](C)O)CCNC(=O)[C@H]([C@@H](C)O)NC(=O)[C@H](CCN)NC(=O)[C@H](CCN)NC1=O [Compound 4] (X48-[Dab]T[Dap][Dab][Dab][dL][Abu][Dab][Dab]T; lactam 4-C)
5. CC[C@@H]1NC(=O)[C@@H](CC(C)C)NC(=O)[C@H](CCN)NC(=O)[C@@H](NC(=O)[C@H](CN)NC(=O)[C@@H](NC(=O)[C@H](CCN)NC(=O)c2n[nH]c3ccccc23)[C@@H](C)O)CCNC(=O)[C@H]([C@@H](C)O)NC(=O)[C@H](CCN)NC(=O)[C@H](CCN)NC1=O [Compound 54] (Indazole3carbonyl-[Dab]T[Dap][Dab][Dab][dL][Abu][Dab][Dab]T; lactam 4-C)

*A*
0.25
0.25
0.25
0.5
0.5
